# tested-target: human recombinant L1196M ALK kinase domain (amino acids 1093-1411) (Homo sapiens, UniProt Q9UM73, L1196M)
# Construct: ALK kinase domain (amino acids 1093-1411); made in house
# procedure-details: L1196M mutant ALK enzyme assay (microfluidic mobility shift)
# Assay type: biochemical
# assay-conditions: L1196M ALK enzyme assay (Ki)
property-name: pKi
Field pKi (float): negative decimal logarithm of the concentration in molar.

Exercise: So what does the record say about pKi for `Cc1cnc2nc3c(n2c1)-c1cnc(N)c(c1)O[C@H](C)c1cc(F)ccc1C(=O)N(C)C3` ?
Solution: 8.70

###

# tested-target: human recombinant wild-type ALK kinase domain (amino acids 1093-1411) (Homo sapiens, UniProt Q9UM73)
# Construct: ALK kinase domain (amino acids 1093-1411); made in house
# procedure-details: Wild-type ALK enzyme assay (microfluidic mobility shift)
# Format: biochemical
# assay-conditions: ATP 60 μM, competitive inhibition fit, read-out: WT ALK enzyme assay (Ki)
property-name: Ki (nM)
Answer in nM, number only, no unit symbol.

These recorded examples may help you get a feel for the data.
CC1Oc2cc(cnc2N)-c2c(cnn2C)CCCCCOc2ccc(F)cc21 (stereo not shown) [Example 129] : 353
CC1Oc2nc(cnc2N)-c2c(C#N)nn3c2C(CC3)N(C)C(=O)c2ccc(F)cc21 (stereo not shown) [Example 75] : 0.065
C[C@H]1Oc2nc(cnc2N)-c2c(nn(C)c2C#N)CN(C)C(=O)c2c(F)cc(F)cc21 [Example 101] : 0.12

Exercise: Any idea what its Ki is? The compound is COc1nccc2c1-c1cnc(N)c(n1)OC(C)c1cc(F)ccc1C(=O)N(C)C2 (single isomer, unassigned) [Example 31]
Solution: 5.96

###

# tested-target: human recombinant wild-type ALK kinase domain (amino acids 1093-1411) (Homo sapiens, UniProt Q9UM73)
# Construct: ALK kinase domain (amino acids 1093-1411); made in house
# procedure-details: Wild-type ALK enzyme assay (microfluidic mobility shift)
# Format: biochemical
# assay-conditions: ATP 60 μM, competitive inhibition fit, read-out: WT ALK enzyme assay (Ki)
A collection of molecules and their measured Ki
All answers are understood in nM, so give the number only.

Worked examples, 4 molecules total:
Cn1ncc2c1-c1cnc(N)c(c1)OCc1cc(F)ccc1OCCCCC2 [Example 42] : 500
C[C@H]1Oc2cc(nnc2N)-c2c(nn(C)c2C#N)CN(C)C(=O)c2ccc(F)cc21 [Example 60] : 4.6
COc1nn(C)c2c1-c1cnc(N)c(c1)OC(CF)c1cc(F)ccc1C(=O)N(C)C2 (single isomer, unassigned) [Example 87] : 270
C[C@H]1Oc2cc(cnc2N)-c2c(C#N)nn(C)c2CN(C)C(=O)c2ccc(F)cc21 [Example 114] : 0.271

Exercise: Given the molecule COc1snc2c1-c1cnc(N)c(n1)O[C@H](C)c1cc(F)ccc1C(=O)N(C)C2 [Example 51] , what is its reported Ki?
Solution: 0.13

Exercise: Sample C[C@H]1Oc2cc(cnc2N)-c2c(nnn2C2CCC2)CN(C)C(=O)c2ccc(F)cc21 [Example 136] — what was its Ki?
Solution: 0.6

Exercise: Sample CN1Cc2nn(C)c(C#N)c2-c2cnc(N)c(c2)OC(CF)c2cc(F)ccc2C1=O (single isomer, unassigned) [Example 84] — what was its Ki?
Solution: 29.3

Exercise: Any idea what its Ki is? The molecule is C[C@H]1Oc2nc(cnc2N)-c2c(nn(CC(F)F)c2C#N)CN(C)C(=O)c2ccc(F)cc21 [Example 91]
Solution: 0.177

###

# tested-target: WT EML4-ALK (NIH-3T3 EML4-ALK wt v1 cells) (Homo sapiens, UniProt Q9UM73)
# Construct: expressed in transfected cells; the other entry of the earlier key: EML4 (Q9HC35, Echinoderm microtubule-associated protein-like 4)
# procedure-details: Cellular phospho-ALK (Tyr1604) ELISA assay for WT EML4-ALK
# Assay type: cell-based
# assay-conditions: 1 hour, read-out: ELISA assay for WT EML4-ALK (IC50)
Listing of entries alongside the reported IC50.
Report only the number, with the unit nM understood.

C[C@H]1Oc2nc(cnc2N)-c2c(C#N)nn(CC(F)F)c2CN(C)C(=O)c2ccc(F)cc21 : 1.32
C[C@H]1Oc2cc(cnc2N)-c2c(nn(C)c2C#N)CN(C)C(=O)c2ccccc21 : 10.2

Exercise: Fill in: IC50 of `COc1noc2c1-c1cnc(N)c(c1)O[C@H](C)c1cc(F)ccc1C(=O)N(C)C2` is ___
Solution: 1.42

Exercise: What value of measured IC50 is listed for CC1Oc2nc(cnc2N)-c2c(nn(C)c2C#N)COCc2ccc(F)cc21 (single isomer, unassigned) ?
Solution: 115

Exercise: Item under review: `C[C@H]1Oc2cc(cnc2N)-c2c(nc3ccccn23)CN(C)C(=O)c2ccc(F)cc21` . Reported IC50?
Solution: 2.37

Exercise: Quick one: IC50 of `Cn1nc2c(c1C#N)-c1cnc(N)c(c1)OCc1cc(F)ccc1COC2` ?
Solution: 217

Exercise: // query IC50 value for entry CC1Cc2cc(cnc2N)-c2c(nn(C)c2C#N)CN(C)C(=O)c2ccc(F)cc21 (single isomer, unassigned) [Example 63]
Solution: 1.95

Exercise: If you can, please state the reported IC50 value of `C[C@H]1Oc2nc(cnc2N)-c2cn(C)nc2CN(C)C(=O)c2ccc(F)cc21` .
Solution: 1.83

###

# tested-target: WT EML4-ALK (NIH-3T3 EML4-ALK wt v1 cells) (Homo sapiens, UniProt Q9UM73)
# Construct: expressed in transfected cells; the other entry of the earlier key: EML4 (Q9HC35, Echinoderm microtubule-associated protein-like 4)
# procedure-details: Cellular phospho-ALK (Tyr1604) ELISA assay for WT EML4-ALK
# Assay type: cell-based
# assay-conditions: 1 hour, read-out: ELISA assay for WT EML4-ALK (IC50)
Known IC50 of a selection of molecules
Hi! Could you send only the number? It should be in nM, unit omitted.

COc1nn(C)c2c1-c1cnc(N)c(n1)OCc1cc(F)ccc1C(=O)N(C)C2C (single isomer, unassigned) [Example 123] : 4790
COc1nn(C)c2c1-c1cnc(N)c(c1)OC(CF)c1cc(F)ccc1C(=O)N(C)C2 (single isomer, unassigned) [Example 86] : 0.45

Now consider a different molecule.
Exercise: Given the entry COc1nn(C)c2c1-c1cnc(N)c(n1)OCc1cc(F)ccc1C(=O)N(C)C2C (single isomer, unassigned) [Example 122] , report its measured IC50.
Solution: 9.27

###

# tested-target: L1196M EML4-ALK (NIH-3T3 EML4-ALK v1 L1196M cells) (Homo sapiens, UniProt Q9UM73, L1196M)
# Construct: expressed in transfected cells; the other entry of the earlier key: EML4 (Q9HC35, Echinoderm microtubule-associated protein-like 4)
# procedure-details: Cellular phospho-ALK (Tyr1604) ELISA assay for L1196M EML4-ALK
# Format: cell-based
# assay-conditions: NIH-3T3 EML4-ALK v1 L1196M cells, 1 hour, phospho-ALK (Tyr1604); read-out: ELISA assay for L1196M EML4-ALK (IC50)
pIC50: −log10 of the molar value.
Output schema: class label derived from pIC50. Mapping: lower segment: < 7; middle segment: ≥ 7 and < 8; upper segment: ≥ 8

Example entries begin here.
CCc1nsc2c1-c1cnc(N)c(c1)O[C@H](C)c1cc(F)ccc1C(=O)N(C)C2 : lower segment
COc1nccc2c1-c1cnc(N)c(c1)O[C@H](C)c1cc(F)ccc1C(=O)N(C)C2 : lower segment
COc1snc2c1-c1cnc(N)c(c1)O[C@H](C)c1cc(F)ccc1C(=O)N(C)C2 : middle segment
CCc1noc2c1-c1cnc(N)c(c1)O[C@H](C)c1cc(F)ccc1C(=O)N(C)C2 : middle segment
CC(C)n1nc2c(c1C#N)-c1cnc(N)c(n1)O[C@H](C)c1cc(F)ccc1C(=O)N(C)C2 : upper segment
COc1nn(C)c2c1-c1cnc(N)c(n1)OCc1cc(F)ccc1C(=O)N(C)C2C (single isomer, unassigned) [Example 123] : lower segment
C[C@H]1Oc2cc(cnc2N)-c2c(nnn2C2CC2)CN(C)C(=O)c2ccc(F)cc21 : lower segment
CC1Oc2nc(cnc2N)-c2c(C#N)nn3c2C(CC3)N(C)C(=O)c2ccc(F)cc21 (stereo not drawn) [Example 74] : middle segment
COc1nn(C)c2c1-c1cnc(N)c(c1)OC(C1CC1)c1cc(F)ccc1C(=O)N(C)C2 (single isomer, unassigned) [Example 26] : lower segment
COc1cnc2cc1-c1cnc(N)c(c1)O[C@H](C)c1cc(F)ccc1C(=O)N(C)CC2 : lower segment

Exercise: Dear colleague, I would appreciate it if you could identify the bin for `CCc1noc2c1-c1cnc(N)c(n1)O[C@H](C)c1cc(F)ccc1C(=O)N(C)C2` and reply at your convenience.
Solution: lower segment

Exercise: Please indicate the class for CC1Oc2nc(cnc2N)-c2c(nn(C)c2C#N)Cn2ccnc2-c2ccc(F)cc21 (single isomer, unassigned) [Example 108] based on its pIC50.
Solution: upper segment
